System: A549/ATCC NSCLC
measurement description: NCI-60 one-dose screen, 48 h (100 = growth as untreated, 0 = no growth, -100 = all killed)
test parameters: 10 µM unless noted
The panel holds about 83,000 compounds, 20% with a hit somewhere; the sample as a whole holds those more often.
measure: growth (%)

INSERT INTO results (molecule, target_under_test, reading_unit, recorded_value) VALUES
  ('Cc1cc(=O)oc2cc(OCCCOc3ccc(/C=C/C(=O)Nc4ccc(Cl)cc4)cc3)ccc12', 'A549/ATCC NSCLC', '%', 28.6),
  ('CCOC(=O)c1sc(NCC(=O)Nc2cccc([N+](=O)[O-])c2)c(C(=O)OCC)c1C', 'A549/ATCC NSCLC', '%', -38.1),
  ('Cn1cc(-c2cc(N)n3nc(-c4cn(C)c5ccc(F)cc45)cc3n2)c2cc(F)ccc21', 'A549/ATCC NSCLC', '%', 18.5),
  ('COc1cccc(OC)c1-c1nnn(C)c1C(=S)N1CCN(c2ccc([N+](=O)[O-])cc2Cl)CC1', 'A549/ATCC NSCLC', '%', 92.9),
  ('O=C1Nc2cc(Cl)ccc2/C1=C\c1ccc(OCc2ccc([N+](=O)[O-])cc2)cc1', 'A549/ATCC NSCLC', '%', 78),
  ('CCCC(=O)NC(c1ccc(N(CC)CC)cc1)c1cc(C)c2cccnc2c1O (centres undefined)', 'A549/ATCC NSCLC', '%', 28.7),
  ('COc1ccc(-c2nn3c(-c4ccccc4F)nnc3s2)cc1', 'A549/ATCC NSCLC', '%', 56.6),
  ('C#C[C@]1(O)CC[C@H]2[C@@H]3CC=C4c5sc(Nc6ccc(Cl)cn6)nc5CC[C@]4(C)[C@H]3CC[C@@]21C', 'A549/ATCC NSCLC', '%', 50.3),
  ('COc1cc(N=Cc2sc(Nc3nccs3)nc2O)cc(OC)c1OC', 'A549/ATCC NSCLC', '%', 95.6);
